Species: Rattus norvegicus
assay notes: Inhibition of rat calpain-1 assessed as cleavage of (EDANS)-EPLFAERK-(DABCYL) at 100 uM in presence of CaCl2 by fluorescence spectrometer relative to control
Activity calls are given as the source filed them. No cut-off for these calls is given here.
property measured: inhibition

Some compounds with known inhibition results, for comparison:
{"structure": "C[C@@H]1N/C(=N\\CC(=O)N[C@@H](Cc2ccccc2)C(=O)N[C@H](CCCN)C(=O)O)[C@H]2CCCN2[C@@H]1C(=O)NC(C)(C)C", "inhibition": "28%"}
{"structure": "CC(C)C[C@H](/N=C1\\N[C@@H](C)[C@@H](C(=O)NC(C)(C)C)N2CCC[C@H]12)C(=O)N[C@@H](CCCCN)C(=O)NCC(=O)O", "inhibition": "Active"}
{"structure": "C[C@H](NC(=O)C/N=C1\\N[C@@H](C)[C@@H](C(=O)NC(C)(C)C)N2CCC[C@H]12)C(=O)N[C@H](CCCN)C(=O)O", "inhibition": "54%"}
{"structure": "CC(C)C[C@@H](NC(=O)C/N=C1\\N[C@@H](C)[C@@H](C(=O)NC(C)(C)C)N2CCC[C@H]12)C(=O)N[C@H](CCCN)C(=O)O", "inhibition": "Active"}
{"structure": "CC(C)C[C@@H]1NC(=O)[C@H](C)NC(=O)CNC(=O)[C@@H]2CCCN2[C@H](C(=O)NC(C)(C)C)[C@H](C)NC(=O)[C@H](CCCCN)NC1=O", "inhibition": "45%"}
{"structure": "C[C@@H]1NC(=O)[C@H](CCCN)NC(=O)CNC(=O)[C@H](CO)NC(=O)CNC(=O)[C@@H]2CCCN2[C@@H]1C(=O)NC(C)(C)C", "inhibition": "38%"}

Which inhibition is reported for this compound? "CC[C@H](C)[C@H](NC(=O)C/N=C1\N[C@@H](C)[C@@H](C(=O)NC(C)(C)C)N2CCC[C@H]12)C(=O)N[C@H](CCCN)C(=O)O" 14%
